The measurements presented in this section are drawn from ChEMBL document CHEMBL3885881.

Species: Rattus norvegicus
Assay: DrugMatrix - Regimen: Daily Repeat
Format: toxicity, organism-based, Sprague-Dawley
Parameters: regimen Daily Repeat, gender Male, age 6-8 weeks
Conditions: in vivo, po, 0 mg/kg, 72 h, tissue Blood, route oral GAVAGE, dose level Control, time 3 day, vehicle 100 % WATER
Rule: measured EOSINOPHIL below 0.2% gets Condition met; anything equal to or greater than 0.2% gets Condition not met.

# TODO verify EOSINOPHIL < 0.2% strictly for this compound: CC(C)NCC(O)COc1cccc2ccccc12 (centres undefined)
Condition not met

Please do the same for CC(C)(C)c1ccc(C(=O)CCCN2CCC(OC(c3ccccc3)c3ccccc3)CC2)cc1 as well.
Condition not met

Again, but for Cc1ncc([N+](=O)[O-])n1CCO
Condition not met

* * *

Species on record: Rattus norvegicus
Test: DrugMatrix - Regimen: Daily Repeat
Type: toxicity, organism-based, Sprague-Dawley
Parameters: regimen Daily Repeat, gender Male, age 6-8 weeks
Conditions: in vivo, po, 0 mg/kg, 120 h, tissue Blood, route oral GAVAGE, dose level Control, time 5 day, […]
# MONOCYTE values compiled below
// units = %; emit number, no label

molecule | MONOCYTE / %
C[C@]12CC[C@@H]3c4ccc(O)cc4CC[C@H]3[C@@H]1CC[C@@H]2O [ESTRADIOL] | 3.33
CCCCCCCCc1ccc(O)cc1 [4-OCTYLPHENOL] | 0.83
Clc1ccc(Cl)cc1 [1,4-DICHLOROBENZENE] | 2.1
COc1ccc2[nH]c([S+]([O-])Cc3ncc(C)c(OC)c3C)nc2c1 (stereo not given) [OMEPRAZOLE] | 1.17
Cc1cccc(Nc2ccncc2S(=O)(=O)NC(=O)NC(C)C)c1 [TORSEMIDE] | 3.33
CC/C(=C(/CC)c1ccc(O)cc1)c1ccc(O)cc1 [DIETHYLSTILBESTROL] | 1.17

# query: MONOCYTE of entry CCOC(=O)C1=C(C)NC(C)=C(C(=O)OC)C1c1cccc([N+](=O)[O-])c1 (stereo not given) [NITRENDIPINE]
1

Moving on to the next molecule: O=NN(CCCl)C(=O)NCCCl [CARMUSTINE]
0.67

Try CC(=O)Nc1ccc(O)cc1 [ACETAMINOPHEN] next.
0.67

Now give it for COCCOC(=O)C1=C(C)NC(C)=C(C(=O)OC(C)C)C1c1cccc([N+](=O)[O-])c1 (stereo not given) [NIMODIPINE] too.
1

* * *

Recorded ABSOLUTE SEGMENTED NEUTROPHIL values for a group of compounds are listed next.
Species on record: Rattus norvegicus
Test: DrugMatrix - Regimen: Daily Repeat
Format: toxicity, organism-based, Sprague-Dawley
Design: regimen Daily Repeat, gender Male, age 6-8 weeks
Settings: in vivo, po, 0 mg/kg, 72 h, tissue Blood, route oral GAVAGE, dose level Control, time 3 day, […]
Could you give me the number in CELLS/uL? Just the number is fine.

Which ABSOLUTE SEGMENTED NEUTROPHIL reading was recorded for the compound COCCOC(=O)C1=C(C)NC(C)=C(C(=O)OC(C)C)C1c1cccc([N+](=O)[O-])c1 (stereo not drawn) ?
869.83

Also CC(C)(Oc1ccc(C2CCCc3ccccc32)cc1)C(=O)O (stereo not drawn) ?
1505

Try the compound CCOC(=O)C1=C(C)NC(C)=C(C(=O)OC)C1c1cccc([N+](=O)[O-])c1 (stereo not drawn)
869.83

Query CC(=O)Nc1cccc(O)c1 next
1748.33

Same thing, different compound: CC(C)Cc1ccc(C(C)C(=O)O)cc1 (stereo not drawn)
744.67

Another compound to look at: CCOC(=O)C(C)(C)Oc1ccc(Cl)cc1 [CLOFIBRATE]
861.83

Would you kindly repeat that for C[C@H]1O[C@@H](O[C@H]2[C@@H](O)C[C@H](O[C@H]3[C@@H](O)C[C@H](O[C@H]4CC[C@@]5(C)[C@H](CC[C@@H]6[C@@H]5CC[C@]5(C)[C@@H](C7=CC(=O)OC7)CC[C@]65O)C4)O[C@@H]3C)O[C@@H]2C)C[C@H](O)[C@@H]1O ?
516.83

Quick one: CC(=O)Nc1ccc(O)cc1
633.67

* * *

Species on record: Rattus norvegicus
Experiment: DrugMatrix - Regimen: Daily Repeat
Assay type: toxicity, organism-based, Sprague-Dawley
Parameters: regimen Daily Repeat, gender Male, age 6-8 weeks
Conditions: in vivo, po, 0 mg/kg, 120 h, tissue Plasma, route oral GAVAGE, dose level Control, time 5 day, vehicle .5 % CMC
measurement_kind: CHOLESTEROL (mg/dL)
Form entry: value (mg/dL) — number only.

Example entries begin here.
compound | CHOLESTEROL (mg/dL)
C[C@]1(Cn2ccnn2)[C@H](C(=O)O)N2C(=O)C[C@H]2S1(=O)=O | 71.33
CN1CCC(=C2c3ccccc3C=Cc3ccccc32)CC1 | 75.5
OC(CCN1CCCCC1)(c1ccccc1)C1CCCCC1 (centres undefined) | 57
CNC(=C[N+](=O)[O-])NCCSCc1ccc(CN(C)C)o1 | 71
O=[N+]([O-])c1ccccc1 | 73.33

Give the measured CHOLESTEROL of Cc1onc(-c2ccccc2)c1-c1ccc(S(N)(=O)=O)cc1 .
61

Another compound: Clc1ccc2c(c1)C(N1CCNCC1)=Nc1ccccc1O2
63.67

Queued: CN1C(=O)COc2c(C(=O)NC3CN4CCC3CC4)cc(Cl)cc21 (centres undefined)
69.83

Same question, C[C@](O)(CS(=O)(=O)c1ccc(F)cc1)C(=O)Nc1ccc(C#N)c(C(F)(F)F)c1 [(R)-BICALUTAMIDE] this time
72.83

* * *

Species on record: Rattus norvegicus
Experiment: DrugMatrix - Regimen: Daily Repeat
Format: toxicity, organism-based, Sprague-Dawley
Design: regimen Daily Repeat, gender Male, age 6-8 weeks
Conditions: in vivo, po, 0 mg/kg, 72 h, tissue Plasma, route oral GAVAGE, dose level Control, time 3 day, vehicle 100 % WATER
Threshold-based label: URIC ACID under 2 mg/dL gives condition met, URIC ACID not under 2 mg/dL gives condition not met.

compound | cat
CC(C)C[C@H](NC(=O)[C@@H](O)[C@H](N)Cc1ccccc1)C(=O)O [UBENIMEX] | condition met

Please state whether URIC ACID is below 2 mg/dL for CC(C)NCC(O)COc1cccc2ccccc12 (stereo not given) [PROPRANOLOL]
condition not met

Would you mind doing C[N+](C)(C)CCO.[Cl-] [CHOLINE CHLORIDE] as well?
condition not met

* * *

Item-by-item account of LYMPHOCYTE
Organism: Rattus norvegicus
Assay: DrugMatrix - Regimen: Daily Repeat
Format: toxicity, organism-based, Sprague-Dawley
Set-up: regimen Daily Repeat, gender Male, age 6-8 weeks
Settings: in vivo, po, 0 mg/kg, 120 h, tissue Blood, route oral GAVAGE, dose level Control, time 5 day, […]
Numeric only. Scale: %

See these solved cases before continuing.
molecule | value_measured
CC(=O)Nc1cccc(O)c1 [METACETAMOL] | 84.5
Clc1ccc(Cl)cc1 [1,4-DICHLOROBENZENE] | 83.83
CCCCCCCCc1ccc(O)cc1 [4-OCTYLPHENOL] | 89

Looking for the measured LYMPHOCYTE of CCOC(=O)C1=C(C)NC(C)=C(C(=O)OC)C1c1cccc([N+](=O)[O-])c1 (stereo not given) [NITRENDIPINE] , can you help?
88.67

One more molecule: CC/C(=C(/CC)c1ccc(O)cc1)c1ccc(O)cc1 [DIETHYLSTILBESTROL]
90.17

* * *

Organism: Rattus norvegicus
Assay: DrugMatrix - Regimen: Daily Repeat
Format: toxicity, organism-based, Sprague-Dawley
Parameters: regimen Daily Repeat, gender Male, age 6-8 weeks
Conditions: in vivo, po, 900 mg/kg, 72 h, tissue Blood, route oral GAVAGE, dose level High, time 3 day, […]
measurement_kind: ABSOLUTE BASOPHIL (cells/µL)
Quick note: give the figure in cells/µL, leave out the unit.

So what does the record say about ABSOLUTE BASOPHIL for Clc1ccc(Cl)cc1 ?
33.3

* * *

Organism: Rattus norvegicus
Test: DrugMatrix - Regimen: Daily Repeat
Format: toxicity, organism-based, Sprague-Dawley
Set-up: regimen Daily Repeat, gender Male, age 6-8 weeks
Conditions: in vivo, po, 0 mg/kg, 120 h, tissue Plasma, route oral GAVAGE, dose level Control, time 5 day, vehicle .5 % CMC
measurement_kind: TOTAL PROTEIN (G/DL)
Hi! Could you send only the number? It should be in G/DL, unit omitted.

Some solved entries appear below for comparison.
compound | TOTAL PROTEIN [G/DL]
C[C@](O)(CS(=O)(=O)c1ccc(F)cc1)C(=O)Nc1ccc(C#N)c(C(F)(F)F)c1 [(R)-BICALUTAMIDE] | 6.08
Clc1ccc2c(c1)C(N1CCNCC1)=Nc1ccccc1O2 [AMOXAPINE] | 6.02
CC[C@@H](CO)NCCN[C@@H](CC)CO [ETHAMBUTOL] | 6.25
C#C[C@]1(O)CC[C@H]2[C@@H]3CCc4cc(OC)ccc4[C@H]3CC[C@@]21C [MESTRANOL] | 6.1
C[C@]1(Cn2ccnn2)[C@H](C(=O)O)N2C(=O)C[C@H]2S1(=O)=O [TAZOBACTAM] | 5.98

Recorded TOTAL PROTEIN of CN1C(=O)COc2c(C(=O)NC3CN4CCC3CC4)cc(Cl)cc21 (stereo not drawn) [AZASETRON] , please.
6.1

Also N=C(N)NC(=O)c1nc(Cl)c(N)nc1N [AMILORIDE] ?
6.25

Now consider CC(C)[C@H]1CC[C@H](C(=O)N[C@H](Cc2ccccc2)C(=O)O)CC1 [NATEGLINIDE] .
6.13
